- Assay Remarks: Solubility of bendamustine HCl in organic solvents (T0 assay after overnight rolling and filtration)
- Format: physicochemical
- Experimental Context: organic solvent or mixture, thermodynamic from solid; PEG 300, 23° C.; read-out: Solubility
Structures can show the parent of a compound that is named as a salt.
Experimental Endpoint: solubility (mg/mL)

[[record]]
compound = "Cn1c(CCCC(=O)O)nc2cc(N(CCCl)CCCl)ccc21 [Bendamustine HCl]"
experimental_endpoint = "solubility"
unit_tag = "mg/mL"
measured_value = 64.5


----------
- Assay Remarks: Solubility of bendamustine HCl in organic solvents (T0 assay after overnight rolling and filtration)
- Format: physicochemical
- Experimental Context: organic solvent or mixture, thermodynamic from solid; 1-methyl-2-pyrrolidinone, both temperatures tested; API completely dissolved; read-out: bendamustine HCl solubility
Counter-ions that a name gives are not always drawn.
Experimental Endpoint: solubility

[[record]]
molecule = "Cn1c(CCCC(=O)O)nc2cc(N(CCCl)CCCl)ccc21 [Bendamustine HCl]"
measured_value = "> 180 mg/mL"


----------
- Assay Remarks: Solubility of bendamustine HCl in organic solvents (T0 assay after overnight rolling and filtration)
- Assay type: physicochemical
- Experimental Context: 2 °C, organic solvent or mixture, thermodynamic from solid; Propylene glycol (USP)-Merck, 2-8° C.; read-out: Solubility
Counter-ions that a name gives are not always drawn.
Experimental Endpoint: solubility (mg/mL)

[[record]]
compound = "Cn1c(CCCC(=O)O)nc2cc(N(CCCl)CCCl)ccc21 [Bendamustine HCl]"
experimental_endpoint = "solubility"
measured_value = 159


----------
- Assay Remarks: Solubility of bendamustine HCl in organic solvents (T0 assay after overnight rolling and filtration)
- Assay type: physicochemical
- Experimental Context: 2 °C, organic solvent or mixture, thermodynamic from solid; Absolute Ethanol, 2-8° C.; read-out: Solubility
Where a name gives a salt, the structure may show the parent alone.
Experimental Endpoint: solubility (mg/mL)

[[record]]
compound = "Cn1c(CCCC(=O)O)nc2cc(N(CCCl)CCCl)ccc21 [Bendamustine HCl]"
unit_tag = "mg/mL"
measured_value = 52.1


----------
- Assay Remarks: Solubility of bendamustine HCl in organic solvents (T0 assay after overnight rolling and filtration)
- Format: physicochemical
- Experimental Context: organic solvent or mixture, thermodynamic from solid; Dimethyl acetamide (high purity)-Finar, 23° C.; read-out: Solubility
Structures can show the parent of a compound that is named as a salt.
Experimental Endpoint: solubility (mg/mL)

[[record]]
compound = "Cn1c(CCCC(=O)O)nc2cc(N(CCCl)CCCl)ccc21 [Bendamustine HCl]"
unit_tag = "mg/mL"
measured_value = 179


----------
- Assay Remarks: Solubility of bendamustine HCl in organic solvents (T0 assay after overnight rolling and filtration)
- Assay type: physicochemical
- Experimental Context: ethanol, organic solvent or mixture, thermodynamic from solid; read-out: bendamustine HCl solubility
Where a name gives a salt, the structure may show the parent alone.
Experimental Endpoint: solubility

[[record]]
molecule = "Cn1c(CCCC(=O)O)nc2cc(N(CCCl)CCCl)ccc21 [Bendamustine HCl]"
experimental_endpoint = "solubility"
measured_value = "50 to 60 mg/mL"


----------
- Assay Remarks: Solubility of bendamustine HCl in organic solvents (T0 assay after overnight rolling and filtration)
- Assay type: physicochemical
- Experimental Context: organic solvent or mixture, thermodynamic from solid; Dimethyl acetamide (EP)-Panreac, 23° C.; read-out: Solubility
Structures can show the parent of a compound that is named as a salt.
Experimental Endpoint: solubility (mg/mL)

[[record]]
compound = "Cn1c(CCCC(=O)O)nc2cc(N(CCCl)CCCl)ccc21 [Bendamustine HCl]"
measured_value = 180


----------
- Assay Remarks: Solubility of bendamustine HCl in organic solvents (T0 assay after overnight rolling and filtration)
- Format: physicochemical
- Experimental Context: 2 °C, organic solvent or mixture, thermodynamic from solid; Propylene glycol (USP)-Dow, 2-8° C.; read-out: Solubility
Counter-ions that a name gives are not always drawn.
Experimental Endpoint: solubility (mg/mL)

[[record]]
molecule = "Cn1c(CCCC(=O)O)nc2cc(N(CCCl)CCCl)ccc21 [Bendamustine HCl]"
experimental_endpoint = "solubility"
unit_tag = "mg/mL"
measured_value = 154


----------
- Assay Remarks: Solubility of bendamustine HCl in organic solvents (T0 assay after overnight rolling and filtration)
- Assay type: physicochemical
- Experimental Context: isopropyl alcohol, organic solvent or mixture, thermodynamic from solid; read-out: bendamustine HCl solubility
Structures can show the parent of a compound that is named as a salt.
Experimental Endpoint: solubility

[[record]]
molecule = "Cn1c(CCCC(=O)O)nc2cc(N(CCCl)CCCl)ccc21 [Bendamustine HCl]"
experimental_endpoint = "solubility"
measured_value = "~5000 µg/mL"


----------
- Assay Remarks: Solubility of bendamustine HCl in organic solvents (T0 assay after overnight rolling and filtration)
- Assay type: physicochemical
- Experimental Context: 2 °C, organic solvent or mixture, thermodynamic from solid; Dimethyl acetamide (high purity)-Finar, 2-8° C.; read-out: Solubility
Where a name gives a salt, the structure may show the parent alone.
Experimental Endpoint: solubility (mg/mL)

[[record]]
compound = "Cn1c(CCCC(=O)O)nc2cc(N(CCCl)CCCl)ccc21 [Bendamustine HCl]"
measured_value = 178


----------
- Assay Remarks: Solubility of bendamustine HCl in organic solvents (T0 assay after overnight rolling and filtration)
- Format: physicochemical
- Experimental Context: 2 °C, organic solvent or mixture, thermodynamic from solid; Propylene glycol, 2-8° C.; read-out: bendamustine HCl solubility
- Experimental: An initial study was performed to assess bendamustine HCl solubility and brief stability in various organic solvents. Amounts of approximately 415.4 mg bendamustine HCl API (active pharmaceutical ingredient) were weighed into 4 mL amber glass vials. 2 mL of each indicated test solvent was added to two of each of the vials. […]
Where a name gives a salt, the structure may show the parent alone.
Experimental Endpoint: solubility

[[record]]
compound = "Cn1c(CCCC(=O)O)nc2cc(N(CCCl)CCCl)ccc21 [Bendamustine HCl]"
measured_value = "~155 mg/mL"


----------
- Assay Remarks: Solubility of bendamustine HCl in organic solvents (T0 assay after overnight rolling and filtration)
- Assay type: physicochemical
- Experimental Context: organic solvent or mixture, thermodynamic from solid; Propylene glycol (USP)-Merck, 23° C.; read-out: Solubility
Structures can show the parent of a compound that is named as a salt.
Experimental Endpoint: solubility (mg/mL)

[[record]]
compound = "Cn1c(CCCC(=O)O)nc2cc(N(CCCl)CCCl)ccc21 [Bendamustine HCl]"
experimental_endpoint = "solubility"
unit_tag = "mg/mL"
measured_value = 172


----------
- Assay Remarks: Solubility of bendamustine HCl in organic solvents (T0 assay after overnight rolling and filtration)
- Assay type: physicochemical
- Experimental Context: organic solvent or mixture, thermodynamic from solid; Propylene glycol, 23° C.; read-out: bendamustine HCl solubility
Structures can show the parent of a compound that is named as a salt.
Experimental Endpoint: solubility

[[record]]
compound = "Cn1c(CCCC(=O)O)nc2cc(N(CCCl)CCCl)ccc21 [Bendamustine HCl]"
measured_value = "~170 mg/mL"


----------
- Assay Remarks: Solubility of bendamustine HCl in organic solvents (T0 assay after overnight rolling and filtration)
- Format: physicochemical
- Experimental Context: 2 °C, organic solvent or mixture, thermodynamic from solid; Benzyl alcohol, 2-8° C.; read-out: Solubility
Counter-ions that a name gives are not always drawn.
Experimental Endpoint: solubility (mg/mL)

[[record]]
compound = "Cn1c(CCCC(=O)O)nc2cc(N(CCCl)CCCl)ccc21 [Bendamustine HCl]"
experimental_endpoint = "solubility"
unit_tag = "mg/mL"
measured_value = 177


----------
- Assay Remarks: Solubility of bendamustine HCl in organic solvents (T0 assay after overnight rolling and filtration)
- Assay type: physicochemical
- Experimental Context: PEG 300, organic solvent or mixture, thermodynamic from solid; read-out: bendamustine HCl solubility
Structures can show the parent of a compound that is named as a salt.
Experimental Endpoint: solubility

[[record]]
compound = "Cn1c(CCCC(=O)O)nc2cc(N(CCCl)CCCl)ccc21 [Bendamustine HCl]"
measured_value = "~60 mg/mL"


----------
- Assay Remarks: Solubility of bendamustine HCl in organic solvents (T0 assay after overnight rolling and filtration)
- Type: physicochemical
- Experimental Context: organic solvent or mixture, thermodynamic from solid; Dimethyl sulfoxide, 23° C.; read-out: Solubility
Where a name gives a salt, the structure may show the parent alone.
Experimental Endpoint: solubility (mg/mL)

[[record]]
molecule = "Cn1c(CCCC(=O)O)nc2cc(N(CCCl)CCCl)ccc21 [Bendamustine HCl]"
measured_value = 181


----------
- Assay Remarks: Solubility of bendamustine HCl in organic solvents (T0 assay after overnight rolling and filtration)
- Assay type: physicochemical
- Experimental Context: 2 °C, organic solvent or mixture, thermodynamic from solid; 1-methyl-2-pyrrolidinone, 2-8° C.; read-out: Solubility
Structures can show the parent of a compound that is named as a salt.
Experimental Endpoint: solubility (mg/mL)

[[record]]
compound = "Cn1c(CCCC(=O)O)nc2cc(N(CCCl)CCCl)ccc21 [Bendamustine HCl]"
unit_tag = "mg/mL"
measured_value = 181


----------
- Assay Remarks: Solubility of bendamustine HCl in organic solvents (T0 assay after overnight rolling and filtration)
- Format: physicochemical
- Experimental Context: 2 °C, organic solvent or mixture, thermodynamic from solid; Dimethyl acetamide (EP)-Finar, 2-8° C.; read-out: Solubility
Counter-ions that a name gives are not always drawn.
Experimental Endpoint: solubility (mg/mL)

[[record]]
compound = "Cn1c(CCCC(=O)O)nc2cc(N(CCCl)CCCl)ccc21 [Bendamustine HCl]"
measured_value = 180

